Numbers sourced from paper PMC7058304.

- target: T1, Recombinant purified human PD-1 protein, residues Leu25-Thr168, with a C-terminal 6-His tag (Homo sapiens, UniProt Q15116)
- T1 construct: programmed cell death protein 1 (PD-1), human, residues Leu25-Thr168; also called programmed cell death protein 1; PD-1-His monomer; source: bought: R&D Systems (catalog# 8986-PD, lot# DDJM0417041)
- T1 sequence (Q15116 25-168): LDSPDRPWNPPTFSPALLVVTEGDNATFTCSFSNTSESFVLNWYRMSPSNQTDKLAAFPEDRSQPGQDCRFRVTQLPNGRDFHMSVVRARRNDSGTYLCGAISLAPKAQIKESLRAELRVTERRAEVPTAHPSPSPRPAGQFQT
- assay-notes: SPR; Biacore 8K, CM5 chip (3D-hydrogel); mAb captured on amine-coupled goat anti-human IgG Fc, PD-1-His monomer as analyte (100 nM top, 3-fold dilutions), 1200 s dissociation; 25 C, HBS-EP+ pH 7.4; 1:1 Langmuir fit, apparent constants
- settings: both partners purified
readout-kind: koff (s⁻¹)
Report the value in s⁻¹ with no unit label.

Examples with answers:
mAb16 (antibody, V domains shown, IgG4; also called analog of dostarlimab; dostar; source: HEK293 suspension cells, cotransfected, purified (Protein A)) VH: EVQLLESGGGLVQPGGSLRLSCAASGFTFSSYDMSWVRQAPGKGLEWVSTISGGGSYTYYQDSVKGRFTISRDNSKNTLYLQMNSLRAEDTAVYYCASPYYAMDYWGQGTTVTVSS VL: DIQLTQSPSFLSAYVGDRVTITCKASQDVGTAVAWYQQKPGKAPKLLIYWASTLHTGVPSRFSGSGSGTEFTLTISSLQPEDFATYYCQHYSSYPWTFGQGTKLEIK = 0.000262
mAb23 (antibody, V domains shown, IgG4; also called analog of cemiplimab; cemip; source: HEK293 suspension cells, cotransfected, purified (Protein A)) VH: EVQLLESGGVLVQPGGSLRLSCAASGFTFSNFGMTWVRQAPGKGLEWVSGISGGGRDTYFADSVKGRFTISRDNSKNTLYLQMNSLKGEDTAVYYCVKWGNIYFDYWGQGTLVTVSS VL: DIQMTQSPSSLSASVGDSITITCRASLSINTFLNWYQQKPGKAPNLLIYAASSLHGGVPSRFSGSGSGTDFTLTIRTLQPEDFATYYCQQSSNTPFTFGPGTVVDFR = 0.000157
mAb17 (antibody, V domains shown, IgG4; also called analog of camrelizumab; camre; source: HEK293 suspension cells, cotransfected, purified (Protein A)) VH: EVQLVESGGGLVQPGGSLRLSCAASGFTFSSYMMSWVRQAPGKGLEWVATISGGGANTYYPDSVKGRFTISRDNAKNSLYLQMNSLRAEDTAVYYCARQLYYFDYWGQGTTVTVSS VL: DIQMTQSPSSLSASVGDRVTITCLASQTIGTWLTWYQQKPGKAPKLLIYTATSLADGVPSRFSGSGSGTDFTLTISSLQPEDFATYYCQQVYSIPWTFGGGTKVEIK = 0.000456

Request: // Input: mAb03 (antibody, V domains shown, IgG4; also called analog of tislelizumab; tisle; source: HEK293 suspension cells, cotransfected, purified (Protein A)) VH: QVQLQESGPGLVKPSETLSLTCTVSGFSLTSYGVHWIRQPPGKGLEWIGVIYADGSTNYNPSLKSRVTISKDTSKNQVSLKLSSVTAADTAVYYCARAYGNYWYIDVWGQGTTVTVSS VL: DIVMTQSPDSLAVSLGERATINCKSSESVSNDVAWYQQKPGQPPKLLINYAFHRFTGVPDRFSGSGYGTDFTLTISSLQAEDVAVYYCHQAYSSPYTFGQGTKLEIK . Output its koff only.
Result: 6.03e-05
